# method-summary: recombinant UMI read abundance after kanamycin selection (control-corrected) (log10(CPM+1)); higher = more efficient recombination; extreme values may be limits of the assay; sequences stand for … in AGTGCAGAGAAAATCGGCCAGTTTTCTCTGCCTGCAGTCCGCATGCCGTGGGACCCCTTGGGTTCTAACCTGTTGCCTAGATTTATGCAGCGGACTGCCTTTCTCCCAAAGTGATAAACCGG…AGGTTGGTTTCACT; site = the 11-nt donor;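 also: IS621 bridge recombinase in Escherichia coli cells against a fixed T5 target plasmid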
Threshold check on recombinant UMI read abundance (log10): at or above 0.3 gives Met, strictly below gives Not met.

AGTCCAACATGGACCGGTTTTCCCGGTAATCCGTATTTGTA (site AGTCCAACTTA) :: Met
CTGCTACCATGGACCGGTTTTCCCGGTAATCCGTATTTGAT (site CTGCTACCTAC) :: Not met
CTGCCACCATGGACCGGTTTTCCCGGTAATCCGTATTTGCT (site CTGCAACCTAG) :: Not met
GTCGCGTCATGGACCGGTTTTCCCGGTAATCCGTATTTGGA (site GTCGCGTCTTC) :: Met

**Query** Answer whether recombinant UMI read abundance (log10) of GAACATTCATGGACCGGTTTTCCCGGTAATCCGTATTTGTT (site GAATATTCTAA) is greater than or equal to 0.3.
**Result** Not met

**Query** Answer whether recombinant UMI read abundance (log10) of GTCACGCCATGGACCGGTTTTCCCGGTAATCCGTATTTGTA (site GGCACGCCTTA) is greater than or equal to 0.3.
**Result** Not met

**Query** Answer whether recombinant UMI read abundance (log10) of ACAGTACCATGGACCGGTTTTCCCGGTAATCCGTATTTGCA (site ACAGTACCTTG) is greater than or equal to 0.3.
**Result** Not met

**Query** Answer whether recombinant UMI read abundance (log10) of ACTCATCCATGGACCGGTTTTCCCGGTAATCCGTATTTGAC (site ACACATCCTGT) is greater than or equal to 0.3.
**Result** Not met
